Source: ChEMBL document CHEMBL2218924

- TARGET_OR_TEST_SYSTEM: Tyrosine-protein kinase ZAP-70 (Homo sapiens)
- Sequence (whole entry): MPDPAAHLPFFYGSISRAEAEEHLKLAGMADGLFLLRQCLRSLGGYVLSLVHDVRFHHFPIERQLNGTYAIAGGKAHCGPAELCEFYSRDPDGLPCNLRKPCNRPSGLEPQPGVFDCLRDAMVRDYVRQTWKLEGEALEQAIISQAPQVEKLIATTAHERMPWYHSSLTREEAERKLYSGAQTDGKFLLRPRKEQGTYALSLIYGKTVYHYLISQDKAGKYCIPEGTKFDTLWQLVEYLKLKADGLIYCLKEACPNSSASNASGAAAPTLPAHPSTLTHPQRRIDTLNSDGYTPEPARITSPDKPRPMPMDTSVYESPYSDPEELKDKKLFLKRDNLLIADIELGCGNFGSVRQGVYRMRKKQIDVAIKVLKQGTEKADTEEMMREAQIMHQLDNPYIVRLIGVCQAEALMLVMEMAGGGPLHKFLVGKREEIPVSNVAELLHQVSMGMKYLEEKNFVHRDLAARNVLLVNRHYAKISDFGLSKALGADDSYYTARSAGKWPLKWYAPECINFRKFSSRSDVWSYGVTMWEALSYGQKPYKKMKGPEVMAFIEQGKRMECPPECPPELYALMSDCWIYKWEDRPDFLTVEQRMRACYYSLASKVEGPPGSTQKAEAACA
- SETUP_CONDITIONS: at 10 µM
VALUE_KIND: residual activity

Notebook: `COc1ccc(-c2cnc3c(-c4ccsc4)cnn3c2)cc1` , residual activity read as 128%

Notebook: O=C1Nc2ccccc2/C1=C1/Nc2ccccc2/C1=N\OCCC(O)CO (stereo not given) , residual activity read as 98%

Notebook: `O=C1c2ccccc2-[n+]2ccc3c([nH]c4ccccc43)c21` , residual activity read as 132%

Notebook: `Nc1ncnc2[nH]nc(Nc3ccc(F)cc3)c12` , residual activity read as 98%

Notebook: `COc1cc2ncnc(Nc3ccc(Oc4ccccc4)cc3)c2cc1OC` , residual activity read as 114%
